B1: LINE1-mini (parent)
chain: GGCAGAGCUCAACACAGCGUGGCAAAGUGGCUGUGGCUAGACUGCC

Variants of: B1
Experiment: self-cleavage, relative activity (ratio to wild type); higher = more cleavage; in vitro, sequencing; the parent is a self-cleaving ribozyme
Rule: self-cleavage under 0.06 gives False, otherwise True.

# sequence_data, cat
rows = [
    ("GGCACAGCUCAACACAGCGUGGCAAAGUGGCUGUGGCUAGACUGCG", "True"),
    ("GGCAGAGCUCAACUCAGCGUUGCAAAGUGGCUGUGGCUAGACUGCC", "True"),
    ("GGCAGAGAUCAACACAGCGUGGCAAAGUGGCUGUGGCUAGACUGCU", "True"),
    ("GGCAGAGCUCAACACCGCGUGGUAAAGUGGCUGUGGCUAGACUGCC", "True"),
    ("GGCAGAGCUCAACACAGCGUGGCAAAGUGGAUGUGGCCAGACUGCC", "True"),
]

Does the variant CGCAAAGCUCAACACAGCGUGGCAAAGUGGCUGUGGCUAGACUGCC have recorded self-cleavage that is 0.06 or more?
False

Does the variant GGCAGGGCUCAACACAGCGUGGCAAAGUGGCUGUGGCUAGGCUGCC have recorded self-cleavage that is 0.06 or more?
True

Does the variant GGCAGAGCUCUACACAGCGUGGCAAAGUGGCUGUGGCUAGACUUCC have recorded self-cleavage that is 0.06 or more?
False

Does the variant GUCAGAGCUCAACACAGCGGGGCAAAGUGGCUGUGGCUAGACUGCC have recorded self-cleavage that is 0.06 or more?
False

Does the variant AGCAGAGCUCAACACAGCGUGGCAAAGUGGCUGUGGCUAGACUGCU have recorded self-cleavage that is 0.06 or more?
True

Does the variant GGCAGAGCUCAACACAGCGUGGAAAAGUGGCUGUGGUUAGACUGCC have recorded self-cleavage that is 0.06 or more?
False

Does the variant GGCAGAGCUCACCACAGCGUGGCAAAGUGGCUGUCGCUAGACUGCC have recorded self-cleavage that is 0.06 or more?
False

Does the variant GGCAGAGCUCUACACAGCGUGCCAAAGUGGCUGUGGCUAGACUGCC have recorded self-cleavage that is 0.06 or more?
True

Does the variant GGCAGAGCUCAACACAGCGUGGCAAAGUGGCUGUGGCUAGGCUGUC have recorded self-cleavage that is 0.06 or more?
True

Does the variant GGCAGAGCUCAACACCGCGUGGCAAAGUGGCUGUGGGUAGACUGCC have recorded self-cleavage that is 0.06 or more?
False

Does the variant GGCAGAGAUCAACACAGCGUGGAAAAGUGGCUGUGGCUAGACUGCC have recorded self-cleavage that is 0.06 or more?
True

Does the variant GGCAGAGCUCAACACAGUGUAGCAAAGUGGCUGUGGCUAGACUGCC have recorded self-cleavage that is 0.06 or more?
True

Does the variant GGGAGAGCUCAAAACAGCGUGGCAAAGUGGCUGUGGCUAGACUGCC have recorded self-cleavage that is 0.06 or more?
True

Does the variant GGCAGAGCUCAACACAGCGUGGCAAAGUGGCUGUGGCGAGACUACC have recorded self-cleavage that is 0.06 or more?
False

Does the variant GGCAGAGCUCAACACAGCGUGCCAAAGUGGCUGUGGCGAGACUGCC have recorded self-cleavage that is 0.06 or more?
False

Does the variant GGCAGAGCUCAACACAGCCUGACAAAGUGGCUGUGGCUAGACUGCC have recorded self-cleavage that is 0.06 or more?
True

Does the variant GGCCGAGCUCAACACAGCGUGGCAAAGUGGCUGUGGCUAGAAUGCC have recorded self-cleavage that is 0.06 or more?
True

Does the variant GGCAGAGCUCUACACAGCGUGGCAAAGCGGCUGUGGCUAGACUGCC have recorded self-cleavage that is 0.06 or more?
True

Does the variant GACAGAGCUCAACACAGCGUGGCAAAGUGGCUGUGACUAGACUGCC have recorded self-cleavage that is 0.06 or more?
True

Does the variant GGCAGAGCUCAACACAGCGCGGCAAAGUGUCUGUGGCUAGACUGCC have recorded self-cleavage that is 0.06 or more?
True

Does the variant GGCAGAGCUCAACACAGCGUGGCAGAGUGGCUGUGGCUCGACUGCC have recorded self-cleavage that is 0.06 or more?
True
